Entry source: ChEMBL document CHEMBL2346645

# ASSAY DETAILS: Antiangiogenic activity in human HMEC1 cells at 10 uM after 8 hrs by matrigel assay
# Type: functional
# CONDITION DETAILS: HMEC-1, 8 h
TEST READOUT: inhibition at 10 µM (%)

compound="CCCCNCC(O)COc1ccc(C2=Cc3ccc(OCC(O)CNCCCC)cc3OC2)cc1 (racemic)" numeric_readout=100
compound="OC(COc1ccc(C2=Cc3ccc(OCC(O)CN4CCCC4)cc3OC2)cc1)CN1CCCC1 (racemic)" numeric_readout=23
compound="OC(CNCc1ccccc1)COc1ccc(C2=Cc3ccc(OCC(O)CNCc4ccccc4)cc3OC2)cc1 (racemic)" numeric_readout=20
compound="Oc1ccc(C2=Cc3ccc(O)cc3OC2)cc1 [IDRONOXIL]" numeric_readout=80
compound="OC(CNc1ccccc1)COc1ccc(C2=Cc3ccc(OCC(O)CNc4ccccc4)cc3OC2)cc1 (racemic)" numeric_readout=27
